TARGET ENTITY: T1, EsCas13d, nuclease-dead (Eubacterium siraeum, UniProt B0MS50, R295A;H300A;R849A;H854A)
T1 sequence: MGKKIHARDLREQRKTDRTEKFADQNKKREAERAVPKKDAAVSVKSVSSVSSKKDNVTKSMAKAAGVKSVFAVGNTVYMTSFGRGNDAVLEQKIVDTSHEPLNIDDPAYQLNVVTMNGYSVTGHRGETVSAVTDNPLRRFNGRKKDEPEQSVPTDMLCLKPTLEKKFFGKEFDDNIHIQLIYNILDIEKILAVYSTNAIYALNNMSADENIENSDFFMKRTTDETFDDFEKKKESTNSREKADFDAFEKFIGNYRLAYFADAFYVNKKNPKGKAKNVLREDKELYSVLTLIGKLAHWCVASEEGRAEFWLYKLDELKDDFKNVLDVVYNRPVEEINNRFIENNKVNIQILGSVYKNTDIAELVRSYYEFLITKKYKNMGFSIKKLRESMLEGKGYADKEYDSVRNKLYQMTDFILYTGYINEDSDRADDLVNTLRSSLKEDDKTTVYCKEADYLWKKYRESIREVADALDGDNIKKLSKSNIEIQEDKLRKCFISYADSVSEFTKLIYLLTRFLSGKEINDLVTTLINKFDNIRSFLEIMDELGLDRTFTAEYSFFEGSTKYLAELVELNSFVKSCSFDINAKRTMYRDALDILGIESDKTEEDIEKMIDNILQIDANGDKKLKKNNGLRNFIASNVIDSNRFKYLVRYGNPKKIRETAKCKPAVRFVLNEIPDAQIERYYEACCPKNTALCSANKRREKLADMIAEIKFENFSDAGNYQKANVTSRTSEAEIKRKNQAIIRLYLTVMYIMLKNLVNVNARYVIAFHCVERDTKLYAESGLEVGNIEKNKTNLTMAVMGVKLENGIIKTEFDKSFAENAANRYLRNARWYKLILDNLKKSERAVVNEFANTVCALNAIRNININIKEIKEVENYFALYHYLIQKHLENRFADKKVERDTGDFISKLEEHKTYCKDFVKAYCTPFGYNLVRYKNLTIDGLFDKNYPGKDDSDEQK
PROCEDURE DETAILS: crRNA (strand 1, pre-loaded); Mg2+; 40 mM Tris-HCl pH 7.5, 150 mM NaCl, 6 mM MgCl2, 1 mM DTT, 0.1% Tween-20, 0.2 mg/ml BSA; 25 C; 10 min per concentration, then washed
STUDY CONDITIONS: tags: His6-TwinStrep-SUMO cleaved; N-terminal SNAP kept (SNAP-Surface 488); label: 3' end held by stalled T7 RNA polymerase
Reported Kd is given for each of the following binders.
ASSAY ENDPOINT: Kd (nM)

1. target 1 insG 3' of 19,insG 3' of 8 (mixed) RNA 1: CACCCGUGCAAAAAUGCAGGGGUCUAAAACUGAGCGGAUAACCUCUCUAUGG RNA 2: GGGAAUGGAUCCACAUCUACGAAUUCGUACCAUGAGAGAGGUUAUGCCGCUCACCGAGAUCGGAAGAGCACACGU	58
2. target 1 C2G,G15C (mixed) RNA 1: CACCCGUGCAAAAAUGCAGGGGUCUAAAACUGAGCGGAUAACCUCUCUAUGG RNA 2: GGGAAUGGAUCCACAUCUACGAAUUCGUACCAUAGACAGGUUAUCCGCUGACCGAGAUCGGAAGAGCACACGU	35.8
3. target 1 insG 3' of 22,insU 3' of 1 (mixed) RNA 1: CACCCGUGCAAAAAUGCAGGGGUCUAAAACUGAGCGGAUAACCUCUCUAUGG RNA 2: GGGAAUGGAUCCACAUCUACGAAUUCGUACGCAUAGAGAGGUUAUCCGCUCAUCCGAGAUCGGAAGAGCACACGU	31
4. target 1 A9C,G12U (mixed) RNA 1: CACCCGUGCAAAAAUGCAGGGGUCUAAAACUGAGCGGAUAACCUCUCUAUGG RNA 2: GGGAAUGGAUCCACAUCUACGAAUUCGUACCAUAGAGAGUUUCUCCGCUCACCGAGAUCGGAAGAGCACACGU	19.3
5. target 1 MT 5'PFS UGG 3'PFS AGU (mixed) RNA 1: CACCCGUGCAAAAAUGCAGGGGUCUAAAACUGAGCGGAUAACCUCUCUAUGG RNA 2: GGGAAUGGAUCCACAUCUACGAAUUCUGGCCAUAGAGAGGUUAUCCGCUCAAGUAGAUCGGAAGAGCACACGU	67
6. target 3 insU 3' of 3,insG 3' of 2 (mixed) RNA 1: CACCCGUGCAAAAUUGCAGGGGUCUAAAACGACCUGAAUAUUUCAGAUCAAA RNA 2: GGGAAUGGAUCCACAUCUACGAAUUCGUUUUUGAUCUGAAAUAUUCAGGUUGCUGCAGAUCGGAAGAGCACACGU	27
7. target 3 insA 3' of 22,insA 3' of 14 (mixed) RNA 1: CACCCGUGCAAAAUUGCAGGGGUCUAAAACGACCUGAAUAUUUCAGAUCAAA RNA 2: GGGAAUGGAUCCACAUCUACGAAUUCGUUUAUUGAUCUGAAAAUAUUCAGGUCUGCAGAUCGGAAGAGCACACGU	94
8. target 1 MT 5'PFS GUG 3'PFS GUC (mixed) RNA 1: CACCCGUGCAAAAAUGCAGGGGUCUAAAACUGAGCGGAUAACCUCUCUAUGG RNA 2: GGGAAUGGAUCCACAUCUACGAAUUCGUGCCAUAGAGAGGUUAUCCGCUCAGUCAGAUCGGAAGAGCACACGU	17

Source of measurements: paper PMC10786891
